- System: FLK-1 receptor
- Assay notes: FLK-1 Assay (cellular/catalytic ELISA, VEGF-stimulated phosphotyrosine)
- Type: cell-based
- Parameters: concentration or dose not given beside the values
- Condition notes: protocol P.110
Observation type: Flk Kinase % Inhibition (P.110) (%)
Answer in %, number only, no unit symbol.

# Compound, Readout units, Obs value
rows = [
    ("Cc1[nH]c2ccccc2c1C=C1C(=O)Nc2ccc(I)cc21", "%", 6.6),
    ("Cc1ccc(C)c(C=C2C(=O)Nc3ccc(CCCl)cc32)c1", "%", 20.3),
    ("COc1ccc(C=C2C(=O)Nc3ccc(I)cc32)cc1C", "%", 2.1),
    ("O=C1Nc2ccc(S(=O)(=O)N3CCOCC3)cc2C1=Cc1ccc(O)cc1Cl", "%", 13.7),
    ("CNS(=O)(=O)c1ccc2c(c1)C(=Cc1cc(O)c(O)c(O)c1)C(=O)N2", "%", "−5.1"),
]

Request: Could you tell me which Flk Kinase % Inhibition (P.110) is on file for COC1CCCN1C=C1C(=O)Nc2ccc(Br)c(C)c21 (stereo not drawn) ?
Response: −3.4

Request: Which value of Flk Kinase % Inhibition (P.110) has been reported for `CC(C)(C)c1ccc(Oc2cccc(C=C3C(=O)Nc4ccc(I)cc43)c2)cc1` in the records?
Response: 17.1

Request: Which Flk Kinase % Inhibition (P.110) value belongs to `Cc1c(Br)ccc2c1C(=Cc1cc(O)cc(O)c1)C(=O)N2` ?
Response: −7.4

Request: Data request, read-out Flk Kinase % Inhibition (P.110), for `CNS(=O)(=O)c1ccc2c(c1)C(=Cc1ccc(C)cc1C)C(=O)N2`
Response: 12.1
